The following binders are shown together with reported Residual activity [%] values.
# tested target: T1, VLP2 (virus-like particles of AAV2) (AAV2, UniProt P03135 1-735; P03135 1-598; P03135 1-533)
# T1 construct: Empty AAV2 capsid; background says about 60 protein molecules, VP1:VP2:VP3 = 1:1:10; Immobilised on the ELISA plate
# T1 sequence (P03135 whole entry, chain 1 of 3): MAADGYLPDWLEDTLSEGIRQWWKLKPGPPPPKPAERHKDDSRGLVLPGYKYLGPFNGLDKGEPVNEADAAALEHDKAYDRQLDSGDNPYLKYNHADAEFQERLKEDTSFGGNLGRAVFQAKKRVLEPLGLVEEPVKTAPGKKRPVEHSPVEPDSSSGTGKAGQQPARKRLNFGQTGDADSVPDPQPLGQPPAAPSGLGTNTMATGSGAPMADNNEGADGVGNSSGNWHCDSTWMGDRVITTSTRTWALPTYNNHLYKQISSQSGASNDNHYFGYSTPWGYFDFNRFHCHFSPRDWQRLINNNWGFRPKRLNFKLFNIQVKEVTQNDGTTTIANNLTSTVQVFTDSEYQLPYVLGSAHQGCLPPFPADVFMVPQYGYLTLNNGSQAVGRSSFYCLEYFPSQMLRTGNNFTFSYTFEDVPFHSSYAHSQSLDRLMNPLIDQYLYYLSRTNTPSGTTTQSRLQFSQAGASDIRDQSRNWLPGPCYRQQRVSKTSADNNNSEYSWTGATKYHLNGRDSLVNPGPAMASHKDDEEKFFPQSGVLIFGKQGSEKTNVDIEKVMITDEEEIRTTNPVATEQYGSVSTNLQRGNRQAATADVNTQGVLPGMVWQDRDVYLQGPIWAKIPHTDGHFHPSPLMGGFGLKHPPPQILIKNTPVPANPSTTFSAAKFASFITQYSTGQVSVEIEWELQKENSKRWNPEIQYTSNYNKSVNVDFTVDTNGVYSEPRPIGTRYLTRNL
# T1 sequence (P03135 139-735, tags left off, chain 2 of 3): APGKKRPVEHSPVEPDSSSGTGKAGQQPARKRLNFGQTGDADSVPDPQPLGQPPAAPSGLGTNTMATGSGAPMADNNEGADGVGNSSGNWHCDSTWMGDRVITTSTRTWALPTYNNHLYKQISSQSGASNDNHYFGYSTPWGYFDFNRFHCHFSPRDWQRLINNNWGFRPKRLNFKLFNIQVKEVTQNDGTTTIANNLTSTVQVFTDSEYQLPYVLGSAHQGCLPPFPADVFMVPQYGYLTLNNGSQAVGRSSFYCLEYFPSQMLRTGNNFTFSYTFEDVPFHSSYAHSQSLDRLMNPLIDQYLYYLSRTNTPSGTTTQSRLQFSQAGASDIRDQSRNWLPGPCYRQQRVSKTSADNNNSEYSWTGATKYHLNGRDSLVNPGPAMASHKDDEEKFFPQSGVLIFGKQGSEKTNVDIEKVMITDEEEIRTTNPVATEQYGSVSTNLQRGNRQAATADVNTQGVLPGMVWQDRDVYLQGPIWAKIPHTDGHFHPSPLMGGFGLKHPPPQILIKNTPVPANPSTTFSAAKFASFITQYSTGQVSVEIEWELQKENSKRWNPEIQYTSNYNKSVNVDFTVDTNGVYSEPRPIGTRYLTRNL
# T1 sequence (P03135 203-735, chain 3 of 3): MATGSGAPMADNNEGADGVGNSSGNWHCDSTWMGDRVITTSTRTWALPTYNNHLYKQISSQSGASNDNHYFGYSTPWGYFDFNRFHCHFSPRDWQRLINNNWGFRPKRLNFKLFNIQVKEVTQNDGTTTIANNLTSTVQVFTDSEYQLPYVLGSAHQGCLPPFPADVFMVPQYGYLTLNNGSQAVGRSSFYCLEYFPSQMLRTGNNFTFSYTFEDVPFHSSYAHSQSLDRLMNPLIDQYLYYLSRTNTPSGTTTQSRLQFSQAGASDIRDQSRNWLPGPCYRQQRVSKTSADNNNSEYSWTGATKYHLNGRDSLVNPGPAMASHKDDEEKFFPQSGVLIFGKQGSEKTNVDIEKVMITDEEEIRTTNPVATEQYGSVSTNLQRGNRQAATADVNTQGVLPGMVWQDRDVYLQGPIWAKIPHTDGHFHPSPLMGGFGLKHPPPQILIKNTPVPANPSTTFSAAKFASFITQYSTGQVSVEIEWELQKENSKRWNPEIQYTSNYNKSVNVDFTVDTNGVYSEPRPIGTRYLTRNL
# protocol description: ELISA on VLP2; binding after pH 3.0 51.1°C 15 min / untreated;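 note: binding of the heat-treated AAV-binding protein to VLP2, expressed as a percentage of the binding of the same protein without heating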
property name: Residual activity [%] (%)

• AAV-binding protein No. 80 (AVR2 + Gln365Arg, Gly392Cys) (receptor) MGSAGESVQITLPKNEVQLNAYVLQEPPKGETCTYDWQLITHPRDYSGEMEGKHSRILKLSKLTPGLYEFKVIVEGQNAHSECYVNVTVKPEPRKNRPPIAIVSPQFQEISLPTTSTVIDGSQSTDDDKIVQYHWEELKGPLREEKISEDTAILKLSKLVPGNYTFSLTVVDSDGATNSTTANLTVNKAVDHHHHHH = 49.9
• AAV-binding protein No. 62 (AVR2 + Leu328Pro) (receptor) MGSAGESVQITLPKNEVQPNAYVLQEPPKGETCTYDWQLITHPRDYSGEMEGKHSQILKLSKLTPGLYEFKVIVEGQNAHSEGYVNVTVKPEPRKNRPPIAIVSPQFQEISLPTTSTVIDGSQSTDDDKIVQYHWEELKGPLREEKISEDTAILKLSKLVPGNYTFSLTVVDSDGATNSTTANLTVNKAVDHHHHHH = 38.8
• AAV-binding protein No. 76 (AVR2 + Asn492Asp) (receptor) MGSAGESVQITLPKNEVQLNAYVLQEPPKGETCTYDWQLITHPRDYSGEMEGKHSQILKLSKLTPGLYEFKVIVEGQNAHSEGYVNVTVKPEPRKNRPPIAIVSPQFQEISLPTTSTVIDGSQSTDDDKIVQYHWEELKGPLREEKISEDTAILKLSKLVPGNYTFSLTVVDSDGATNSTTADLTVNKAVDHHHHHH = 36.4

Values were extracted from patent US20220402995A1.
